assay: Stability in rat plasma assessed as half life by LCMS analysis; format: ADME, cell-free
Answer criterion not met if t1/2 is under 10 min, and criterion met if it is 10 min or more.

Item CC(=O)OC/C(C)=C/CCP(=O)(OCOC(=O)c1cn(-c2ccc(F)cc2)nn1)Oc1ccccc1 (stereo not drawn) with t1/2 of 10 min or above? criterion met

Item CC(=O)OC/C(C)=C/CCP(=O)(OCOC(=O)c1cn(-c2ccc(C(C)C)cc2)nn1)Oc1ccccc1 (stereo not drawn) with t1/2 of 10 min or above? criterion met

Item COCCc1ccc(OP(=O)(CC/C=C(\C)CO)OCOC(=O)c2cn(-c3ccc(F)cc3F)nn2)cc1 (stereo not drawn) with t1/2 of 10 min or above? criterion not met

Item CC(=O)OC/C(C)=C/CCP(=O)(OCOC(=O)c1cn(-c2ccc(F)cc2)nn1)Oc1ccc(C(C)C)cc1 (stereo not drawn) with t1/2 of 10 min or above? criterion met

Item C/C(=C\CCP(=O)(OCOC(=O)c1cn(-c2ccc(F)cc2)nn1)Oc1ccccc1)CO (stereo not drawn) with t1/2 of 10 min or above? criterion not met

Item CC(=O)OC/C(C)=C/CCP(=O)(OCOC(=O)c1cn(-c2ccccc2)nn1)Oc1ccccc1 (stereo not drawn) with t1/2 of 10 min or above? criterion met

* * *

experiment: Drug metabolism in human plasma assessed as aryl mono anion metabolite formation at 100 uM measured after 1 hr by LC-MS analysis; assay type: ADME, cell-free; parameters: unit not given here
parameter: Drug metabolism
Lab note: jot down the number only; don't add units.

# Drug metabolism of CC(=O)OC/C(C)=C/CCP(=O)(OCOC(=O)c1cn(-c2ccc(F)cc2)nn1)Oc1ccccc1 (centres undefined) = 410

# Drug metabolism of CC(=O)OC/C(C)=C/CCP(=O)(OCOC(=O)c1cn(-c2ccc(C(C)C)cc2)nn1)Oc1ccccc1 (centres undefined) = 80

# Drug metabolism of CC(=O)OC/C(C)=C/CCP(=O)(OCOC(=O)c1cn(-c2ccc(F)cc2)nn1)Oc1ccc(C(C)C)cc1 (centres undefined) = 1900

# Drug metabolism of C/C(=C\CCP(=O)(OCOC(=O)c1cn(-c2ccccc2)nn1)Oc1ccc(C(C)C)cc1)CO (centres undefined) = 11000

# Drug metabolism of CC(=O)OC/C(C)=C/CCP(=O)(OCOC(=O)c1cn(-c2ccccc2)nn1)Oc1ccc(C(C)C)cc1 (centres undefined) = 730

# Drug metabolism of CC(=O)OC/C(C)=C/CCP(=O)(OCOC(=O)c1cn(-c2ccccc2)nn1)Oc1ccccc1 (centres undefined) = 1800

# Drug metabolism of C/C(=C\CCP(=O)(OCOC(=O)c1cn(-c2ccc(C(C)C)cc2)nn1)Oc1ccccc1)CO (centres undefined) = 2700

# Drug metabolism of C/C(=C\CCP(=O)(OCOC(=O)c1cn(-c2ccccc2)nn1)Oc1ccccc1)CO (centres undefined) = 13000

# Drug metabolism of C/C(=C\CCP(=O)(OCOC(=O)c1cn(-c2ccc(F)cc2)nn1)Oc1ccccc1)CO (centres undefined) = 6000

* * *

assay: Drug metabolism in human plasma assessed as acetylated aryl mono anion metabolite formation at 100 uM measured after 1 hr by LC-MS analysis; format: ADME, cell-free; design: unit not given here
Field: Drug metabolism. Provide a value for each of the compounds that follow.
Lab note: jot down the number only; don't add units.

# Drug metabolism of CC(=O)OC/C(C)=C/CCP(=O)(OCOC(=O)c1cn(-c2ccc(F)cc2)nn1)Oc1ccccc1 (stereo unspecified) = 2100

# Drug metabolism of CC(=O)OC/C(C)=C/CCP(=O)(OCOC(=O)c1cn(-c2ccccc2)nn1)Oc1ccccc1 (stereo unspecified) = 8800

# Drug metabolism of CC(=O)OC/C(C)=C/CCP(=O)(OCOC(=O)c1cn(-c2ccccc2)nn1)Oc1ccc(C(C)C)cc1 (stereo unspecified) = 4200

# Drug metabolism of CC(=O)OC/C(C)=C/CCP(=O)(OCOC(=O)c1cn(-c2ccc(C(C)C)cc2)nn1)Oc1ccccc1 (stereo unspecified) = 2400

# Drug metabolism of CC(=O)OC/C(C)=C/CCP(=O)(OCOC(=O)c1cn(-c2ccc(C(C)C)cc2)nn1)Oc1ccc(C(C)C)cc1 (stereo unspecified) = 880

# Drug metabolism of CC(=O)OC/C(C)=C/CCP(=O)(OCOC(=O)c1cn(-c2ccc(F)cc2)nn1)Oc1ccc(C(C)C)cc1 (stereo unspecified) = 6800
